Experiment: Selectivity ratio of pKi for CB1 receptor in rat brain to pKi for human cloned CB2 receptor
Assay type: tissue-based
For each entry below, report its Ratio pKi value.

These recorded examples may help you get a feel for the data.
>>> experimental_value("CCCn1cc(C(=O)c2cccc3ccccc23)c2ccccc21")
0.883
>>> experimental_value("CCCCCn1cc(C(=O)Cc2ccc(Cl)cc2)c2ccccc21")
1.02
>>> experimental_value("CCCCCn1cc(C(=O)Cc2cccc(Cl)c2)c2ccccc21")
1.06
>>> experimental_value("CCCCCn1c(C)c(C(=O)c2cccc3ccccc23)c2ccccc21")
0.94

Give me Ratio pKi for each of these molecules, listed below.
1. CCCn1c(C)c(C(=O)c2cccc3ccc(OC)cc23)c2ccccc21
2. CCCCCn1c(C)c(C(=O)Cc2ccccc2Cl)c2ccccc21
3. CCCCCn1cc(C(=O)c2c(OC)ccc3ccccc23)c2ccccc21

1. 0.913
2. 1.04
3. 0.788

Take each entry in turn and give its Ratio pKi.
1. CCCn1c(C)c(C(=O)c2cccc3ccc(CC)cc23)c2ccccc21
2. CCCCCn1cc(C(=O)Cc2ccc(C)cc2)c2ccccc21
3. CCCn1c(C)c(C(=O)c2cccc3ccc(C)cc23)c2ccccc21

[0.887, 1.08, 0.829]

Hello, please tell me recorded Ratio pKi for this one: CCCCCn1cc(C(=O)c2ccc(OC)c3ccccc23)c2ccccc21 1.13

###

Reported log10(Ki), Cannabinoid receptor 1 (Rattus norvegicus).
All values: base-10 log of Ki in nM.

Would you please look over these solved cases?
>>> experimental_value("CCCn1cc(C(=O)c2cccc3ccccc23)c2ccccc21")
3.02
>>> experimental_value("CCCCCn1cc(C(=O)c2ccc(OC)c3ccccc23)c2ccccc21")
0.08

For each of the items listed, what is its log10(Ki)?
1. CCCCCn1cc(C(=O)c2ccc(C)c3ccccc23)c2ccccc21
2. CCCn1cc(C(=O)c2ccc(OC)c3ccccc23)c2ccccc21
3. CCCn1c(C)c(C(=O)c2ccc(OC)c3ccccc23)c2ccccc21
4. CCCCCn1c(C)c(C(=O)c2cccc3ccc(C)cc23)c2ccccc21
5. CCCn1c(C)c(C(=O)c2cccc3ccc(C)cc23)c2ccccc21
6. CCCCCn1c(C)c(C(=O)c2ccc(C)c3ccccc23)c2ccccc21

-0.16
1.80
2.68
1.03
2.54
0.70

// batch mode: one log10(Ki) value per listed entry
1. CCCCCn1c(C)c(C(=O)c2ccc(OC)c3ccccc23)c2ccccc21
2. CCCCCn1c(C)c(C(=O)c2cccc3ccccc23)c2ccccc21
3. CCCCCn1cc(C(=O)c2cccc3ccccc23)c2ccccc21

1. 0.65
2. 0.98
3. 0.96

###

Assay: Selectivity ratio of pKi for CB1 receptor in rat brain to pKi for human cloned CB2 receptor
Type: tissue-based
Class assignment keyed on Ratio pKi, ranges lower level: < 0.9; middle level: ≥ 0.9 and < 1; upper level: ≥ 1

Worked examples follow.
>>> answer_label("CCCn1cc(C(=O)c2cccc3ccc(OC)cc23)c2ccccc21")
"middle level"
>>> answer_label("CCCCCn1c(C)c(C(=O)c2c(OC)ccc3ccccc23)c2ccccc21")
"lower level"
>>> answer_label("CCCCCn1c(C)c(C(=O)Cc2ccccc2OC)c2ccccc21")
"upper level"
>>> answer_label("CCCCCn1c(C)c(C(=O)Cc2ccc(C)cc2)c2ccccc21")
"upper level"
>>> answer_label("CCCc1ccc(C(=O)c2cn(CCC)c3ccccc23)c2ccccc12")
"middle level"
>>> answer_label("CCCCCn1cc(C(=O)Cc2ccc(Br)cc2)c2ccccc21")
"middle level"

Continue with the compound presented below.
Categorize the following entry: CCCCCn1c(C)c(C(=O)Cc2cccc(F)c2)c2ccccc21 middle level
